assay notes: Inhibition of TNF-alpha inducible Vascular cell adhesion molecule-1 expression.
pIC50: −log10 of the molar value.
readout label: pIC50

Known results for compounds:
CC(C)(Sc1cc(C(C)(C)C)c(O)c(C(C)(C)C)c1)Sc1cc(C(C)(C)C)c(OC(=O)COCC(=O)O)c(C(C)(C)C)c1
4.43
CC(C)(Sc1cc(C(C)(C)C)c(O)c(C(C)(C)C)c1)Sc1cc(C(C)(C)C)c(OC(=O)CCCC(=O)O)c(C(C)(C)C)c1
5.05
CC(C)(CO)CC(=O)Oc1c(C(C)(C)C)cc(SC(C)(C)Sc2cc(C(C)(C)C)c(O)c(C(C)(C)C)c2)cc1C(C)(C)C
3.96
CC(=O)O/C(=C\C(=O)Oc1c(C(C)(C)C)cc(SC(C)(C)Sc2cc(C(C)(C)C)c(O)c(C(C)(C)C)c2)cc1C(C)(C)C)C(=O)O
4.77
CC(C)(Sc1cc(C(C)(C)C)c(O)c(C(C)(C)C)c1)Sc1cc(C(C)(C)C)c(OC(=O)CO)c(C(C)(C)C)c1
4.52

I: CC(C)(Sc1cc(C(C)(C)C)c(O)c(C(C)(C)C)c1)Sc1cc(C(C)(C)C)c(OC(=O)CCCCCCC(=O)O)c(C(C)(C)C)c1
II: CC(C)(Sc1cc(C(C)(C)C)c(O)c(C(C)(C)C)c1)Sc1cc(C(C)(C)C)c(OC(=O)CCC(=O)O)c(C(C)(C)C)c1
Query: Looking at recorded values for pIC50, does I or II come in lower? Kindly state the label of the option you pick.
Result: I
(I: 4.35, II: 5.22)
